These data points were gathered from patent US20260365670A1.

What IC50 was measured for each of the following?
test_target: EGFR wild type (Homo sapiens, UniProt P00533)
Construct: purchased Carna Bio
Sequence (P00533 25-1210): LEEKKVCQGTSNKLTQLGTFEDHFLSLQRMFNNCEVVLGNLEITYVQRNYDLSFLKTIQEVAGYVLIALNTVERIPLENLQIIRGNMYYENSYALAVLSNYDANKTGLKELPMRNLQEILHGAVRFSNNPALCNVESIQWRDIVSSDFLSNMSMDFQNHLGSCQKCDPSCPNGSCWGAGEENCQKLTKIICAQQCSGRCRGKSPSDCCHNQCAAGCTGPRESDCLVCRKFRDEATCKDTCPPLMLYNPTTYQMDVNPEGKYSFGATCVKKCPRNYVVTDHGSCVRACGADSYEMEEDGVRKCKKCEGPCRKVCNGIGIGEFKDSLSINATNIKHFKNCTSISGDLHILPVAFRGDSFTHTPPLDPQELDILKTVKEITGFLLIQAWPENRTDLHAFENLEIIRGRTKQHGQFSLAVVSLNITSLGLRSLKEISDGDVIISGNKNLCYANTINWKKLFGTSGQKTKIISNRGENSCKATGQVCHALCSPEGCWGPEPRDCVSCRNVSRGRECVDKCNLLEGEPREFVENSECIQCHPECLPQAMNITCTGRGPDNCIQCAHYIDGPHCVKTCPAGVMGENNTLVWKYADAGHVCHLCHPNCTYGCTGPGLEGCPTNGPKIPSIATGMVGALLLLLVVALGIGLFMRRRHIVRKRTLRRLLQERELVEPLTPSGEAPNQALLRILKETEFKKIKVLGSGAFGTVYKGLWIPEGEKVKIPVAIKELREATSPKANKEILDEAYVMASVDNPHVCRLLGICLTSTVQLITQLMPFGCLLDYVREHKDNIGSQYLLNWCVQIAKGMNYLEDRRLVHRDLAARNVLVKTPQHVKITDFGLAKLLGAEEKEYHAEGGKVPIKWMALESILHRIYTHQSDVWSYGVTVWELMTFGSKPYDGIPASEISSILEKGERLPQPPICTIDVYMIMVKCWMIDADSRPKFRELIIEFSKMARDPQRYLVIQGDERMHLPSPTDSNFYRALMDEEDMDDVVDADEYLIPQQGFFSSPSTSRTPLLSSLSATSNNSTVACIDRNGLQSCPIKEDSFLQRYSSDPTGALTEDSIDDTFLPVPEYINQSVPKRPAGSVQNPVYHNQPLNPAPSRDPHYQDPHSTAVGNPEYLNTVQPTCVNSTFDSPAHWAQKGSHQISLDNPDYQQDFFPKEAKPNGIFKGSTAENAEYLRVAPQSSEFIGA
assay_name: Inhibition of EGFR wild type biochemical enzymatic activity (HTRF)
assay_conditions: EGFR wild type, 1 mM ATP, 1 h at room temperature, read-out: IC50 @WT

Exercise: Data request, read-out IC50, for Cc1cc2cc(n1)-c1cnn(C)c1OCCN1CC3CCC(C3)(C1)n1c(nc3ccc(N4CCC(N5CCOCC5)C4)cc31)NC2=O (single isomer, unassigned) [Example B44B]
Solution: > 5 µM

Exercise: Please report the recorded IC50 for Cc1cc2cc(n1)-c1cc(=O)n(C)cc1OCCC[C@@H](C)Cn1c(nc3ccccc31)NC2=O .
Solution: > 5 µM

Exercise: # IC50 lookup, item Cc1cc2cc(n1)-c1cnn(C)c1OCCN1CCOCC(C1)n1c(nc3ccccc31)NC2=O (single isomer, unassigned) [Example B7A]
Solution: > 5 µM

Exercise: Dear colleague, I am looking for the recorded IC50 of the following molecule: Cc1cc2cc(n1)-c1cnn(C)c1OCCN1CC3CCC(C3)(C1)n1c(nc3ccc(N4CCC(N5CCN(C)CC5)C4)cc31)NC2=O (single isomer, unassigned) [Example B49B]
Solution: 0.076 µM

Exercise: What IC50 value was documented for this molecule, COCCN(C)c1ccc2nc3n(c2c1)C12CCC(CN(CCOc4c(cnn4C)-c4cc(cc(C)n4)C(=O)N3)C1)C2 (single isomer, unassigned) [Example B46B] ?
Solution: > 5 µM

Exercise: So what does the record say about IC50 for Cc1cc2cc(n1)-c1cnn(C)c1OCCN1CC3CCC(C3)(C1)n1c(nc3ccc(N4CCC(N5CCOCC5)C4)cc31)NC2=O (single isomer, unassigned) [Example B44A2] ?
Solution: > 5 µM
